assay: reversal of MRP1-mediated doxorubicin resistance, pilot screen, H69AR cells, doxorubicin co-treatment (AID 601); conditions: H69AR cells + 2 uM doxorubicin, CellTiter-Glo, 72 h; measured here: viability with 2 uM doxorubicin; at 10 µM; stronger effect = lower value
I'd appreciate it if you could supply viability values for the items below.
Give just the number in %; leave the unit off.

QUERY: Data request, read-out viability, for O=C(CC(C(=O)N1CCc2ccccc21)n1ccnc1)NCc1cccnc1 (configuration not stated)
RESULT: 100

QUERY: Moving on to the next compound: CCOc1nc(-c2ccccc2)ccc1-c1noc(-c2cccnc2)n1
RESULT: 86.4

QUERY: Input CCN1CCN(c2cc3c(cc2F)c(=O)c(C(=O)O)cn3C2CC2)CC1
RESULT: 88.8

QUERY: Further, for CCC1c2ccc(C)n2CCN1C(=O)Nc1ccccc1OC (configuration not stated) ?
RESULT: 89.7

QUERY: Same again, this time with O=C(NCc1cccnc1)C1CCCN(S(=O)(=O)c2ccc(Cl)cc2)C1 (configuration not stated)
RESULT: 84.9

QUERY: Next up: COc1ccc(-c2nnc(SCC(=O)Nc3ccc(Cl)cc3)n2C)cc1
RESULT: 82.2

QUERY: # iterate: Cn1c(SCC(=O)N2CCOCC2)nnc1-c1cnccn1
RESULT: 98.7

QUERY: Another: COc1c(Br)cc2c(C)c(C(=O)O)oc2c1Br
RESULT: 89.3

QUERY: Okay, and CCOC(=O)c1cccnc1SCC(=O)NC(C)CC (configuration not stated) ?
RESULT: 92.3

QUERY: Please do the same for Cc1ccc(Cn2c(NCCc3ccccc3)nc3c2c(=O)n(C)c(=O)n3C)cc1 as well.
RESULT: 88.1

QUERY: Could you do the same for O=C(CCSc1ccccc1)N1CCOCC1 , please?
RESULT: 94.4

QUERY: Similarly, CN(C)C(=O)N1CCCC(C(=O)NCc2ccccc2)C1 (configuration not stated) ?
RESULT: 107
